- system.tested: recombinant homotrimeric HA, A/northern shoveler/California/HKWF115/07 (Influenza A virus A/northern shoveler/California/HKWF115/2007 (H6N1))
- assay.name: trimeric HA microarray, transfection set 2
- experimental.conditions: remark: other sources report otherwise
property.measured: Trimeric HA Binding RLU

Exercise: What does the record list as Trimeric HA Binding RLU for TCN-523 (5248_A17) (antibody, V domains shown) VH: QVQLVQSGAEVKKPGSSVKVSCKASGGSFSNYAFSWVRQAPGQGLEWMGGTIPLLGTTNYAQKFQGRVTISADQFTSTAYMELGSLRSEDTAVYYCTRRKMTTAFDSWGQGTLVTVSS VL: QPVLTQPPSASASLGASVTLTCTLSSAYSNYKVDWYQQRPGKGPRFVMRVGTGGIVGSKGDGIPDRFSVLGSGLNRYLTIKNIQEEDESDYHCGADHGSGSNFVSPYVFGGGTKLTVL ?
Key: 21200 RLU
